Hey, just so you know, these numbers are from ChEMBL document CHEMBL3286225.

Here, each record is paired with measured MIC80 data.
- Test system: Pichia kudriavzevii
- Assay summary: Antifungal activity against Candida krusei 0710397 after 7 days by serial dilution method
- Type: functional
- Test conditions: Pichia kudriavzevii, 0710397, 168 h
Observation type: MIC80 (µg/mL)

# Structure as smiles, Target entity, Reading
rows = [
    ("Fc1ccc(OCCCn2c3c(c4cc(Cl)ccc42)CNCC3)cc1", "Pichia kudriavzevii", 4),
    ("Cc1ccc(OCCCn2c3c(c4cc(F)ccc42)CNCC3)cc1", "Pichia kudriavzevii", 4),
    ("Fc1ccc2c(c1)c1c(n2CCCOc2cccc(Br)c2)CCNC1", "Pichia kudriavzevii", 4),
    ("Cc1cccc(OCCCn2c3c(c4cc(F)ccc42)CNCC3)c1", "Pichia kudriavzevii", 16),
    ("Fc1ccc2c(c1)c1c(n2CCCOc2cccc(F)c2F)CCNC1", "Pichia kudriavzevii", 4),
]
